Measured values drawn from patent US20220073643A1 for this set.

target: human Claudin18.2 (human); experiment: cell-based or functional assay
Recorded CDC EC50 values for a group of binders are listed next.
State just the number; it will be interpreted in µg/mL.

Incoming: Look up CDC EC50 of 252E7C9 (antibody, V domains shown) VH: QTYLQQSGAELVRSGASVKMSCRTSGYSFTSHNMHWVKQTPGQGLEWIGYIYPGNGGSYYNQKFKGKAILTADTSSSTAYMQISSLTSEDSAVYFCTRDYYGNSFVYWGQGTLVTVSA VL: DVVMTQSPSSLTEKTGEKVSMSCKSSQSLLNSGNQKNYLTWYQQKPGQPPKLLIYWASTRESGVPDRFTGSGSGTDFTLTISSLQTEDLAIYYCQNNFRYPFTFGAGTKLELK and report it.
Outgoing: 1.19

Incoming: Given the binder 286C7F11 (antibody, V domains shown) VH: QVQLKESGPGLVAPSQSLSITCTVSGFSLTDYGVSWIRQPPGKGLEWLGVIWNRGNTYYNSALKSRLSISKDNSKSQVFLRMNSLQTDDTAMYYCAKHDFLRFLDYWGQGTTLTVSS VL: DVVMTQSPSSLTVTAGEKVTMSCKSSQSLLNSGNQKNYLTWYQQKPGQPPKILIYWASTRESGVPDRFTGSGSGTDFSLTITSVQAEDLAVYYCLNDYYYPLTFGAGTKLELK , write its reported CDC EC50.
Outgoing: 1.52

Incoming: Output CDC EC50 of 235A10C9 (antibody, V domains shown) VH: QAYLQQSGAELVRSGASVKMSCKASGYTFASHNMHWVKQTPGQGLEWIGYIYPGNSGTKYNQKFTGKATLTADTSSSTAYMQITSLTSEDSAVYFCARDYYGNSFAYWGQGTLVTVSA VL: DIVMTQSPSSLTEKAGEKVSMRCKSSQSLLNSGNQKNYLTWYQQKPGQPPKLLIYWASTRESGVPDRFTGSGSGTDFTLTISSVQADDLAVYYCQNDYMFPFTFGAGTKLELK
Outgoing: 1.01

Incoming: Answer with the recorded CDC EC50 for the binder listed here: 411A6E3 (antibody, V domains shown) VH: DVQLVESGGGLVQPGGSRKLSCAASGFTFSDFGMHWIRQTPEKGLEWVAYISSGSRPIYYADTVKGRFTISRDNPKNTLFLQMTSLRSEDTAMYFCVRFYFGNSFDHWGQGTLVTVSA VL: DIVMTQSPSFLTVTAGEKVTMTCRSSQNLLNSGNLKNYLTWYQQKPGQPPKLLISWASTRESGVPDRFTGSGSGTDFTLTISSVQPEDLALYYCQNAYSFPLTFGAGTKLELK
Outgoing: 2.5
